assay: Quantitative highthroughput screen to assess conditional lethalithy of NOMO1 cells grown in RPMI1640 with untreated serum (RPMI+s) (AID 1963876); conditions: NOMO1 AML cells in RPMI+serum, CellTiter-Glo viability, 48 h; series mostly up to 45.8 µM; also: nearly all actives have a fitted effect of over 35% in size;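 as to viability: 100% = DMSO wells and 0% = empty wells without cells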
Inconclusive results are not listed. Calls of active or inactive are those of the source. Calls follow the shape of the dose curve; as a rule, active = well fitted cell-killing curve with a large enough effect; inconclusive = small, poorly fitted or top-dose-only effect; inactive = flat fitted curve, though single readings scatter.
Output constraint: value belongs to active, inactive

Solved entries:
CN(C)c1ccc(Nc2nc(N)n(C(=O)c3c(F)cccc3F)n2)cc1 ... inactive
COCCn1c2c([n+](Cc3cnccn3)c1C)C(=O)c1ccccc1C2=O ... active

Now consider the entry below.
## Task Outcome? CN(C)C/C=C/C(=O)Nc1ccc(C(=O)Nc2cccc(Nc3ncc(Cl)c(-c4c[nH]c5ccccc45)n3)c2)cc1
## Result active

----------
experiment: Viability qHTS for spleen associated tyrosine kinase inhibitor (SYKi) drug resistant MV4-11 cells (AID 1963824); conditions: SYKi-resistant MV4-11 viability, CellTiter-Glo, 72 h; series mostly up to 45 µM; also: nearly all actives have a fitted effect of over 35% in size
Records with an inconclusive call do not appear. Activity calls are given as the source filed them. Calls follow the shape of the dose curve; as a rule, active = well fitted cell-killing curve with a large enough effect; inconclusive = small, poorly fitted or top-dose-only effect, or effect the other way; inactive = no such curve, though single readings can be large or run the other way.
Output constraint: value belongs to 1.0 for active, 0.0 for inactive

Solved entries:
COc1cc2[nH]c(=O)[nH]c(=O)c2cc1OC ... 0.0
C(#Cc1nc2ncccc2nc1OCCN1CCCC1)c1ccccc1 ... 1.0
OCCn1cc(-c2ccc3c(c2)CC/C3=N\O)c(-c2ccncc2)n1 ... 1.0
O=C(Nc1cccc(C(F)(F)F)c1)c1ccccc1NCc1ccncc1 ... 1.0
COC(=O)[C@@H](NC(=O)[C@H](CC(C)C)NC(=O)N(Cc1ccccc1)C[C@@H](O)[C@H](Cc1ccccc1)NC(=O)OC(C)(C)C)C(C)C ... 1.0

## Task Outcome? C[C@H](CCC(=O)O)[C@H]1CC[C@H]2[C@@H]3C(=O)C[C@@H]4CC(=O)CC[C@]4(C)[C@H]3CC(=O)[C@]12C
## Result 0.0

## Task Outcome? Cc1[nH]cnc1CN1CCN(C(=O)N[C@@H](CC(C)C)C(=O)O)[C@@H](Cc2ccccc2)C1=O
## Result 0.0

## Task Outcome? CC(=O)NO
## Result 0.0

----------
experiment: Quantitative highthroughput screen to assess conditional lethalithy of SEM cells grown in RPMI1640 with unreated serum (RPMI+s) (AID 1963883); settings: SEM B-ALL cells, CellTiter-Glo viability, 48 h; series mostly up to 45.8 µM; also: nearly all actives have a fitted effect of over 35% in size; also: potency is read from the fitted curve at half-maximal effect;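 as to viability: 100% = DMSO wells and 0% = empty wells without cells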
Records with an inconclusive call do not appear. Active and inactive are the calls of the source. The call rests on the fitted dose curve; in most records, active means well fitted cell-killing curve with a large enough effect; inconclusive means small, poorly fitted or top-dose-only effect, or effect the other way; inactive means no such curve, though single readings can be large or run the other way.
RECORDED ENDPOINT: Potency

O=C1c2cccc(O)c2C(=O)c2c(O)cc(CO)cc21 ... inactive
CN(C)CCCC1(c2ccc(F)cc2)OCc2cc(C#N)ccc21 (stereo not given) ... inactive
CC(=O)OCC(CCn1cnc2cnc(N)nc21)COC(C)=O ... inactive
CN1CCN(CCOc2cc(OC3CCOCC3)c3c(Nc4c(Cl)ccc5c4OCO5)ncnc3c2)CC1 ... 6.62 µM (active)

Parameter requested: Potency. Apply to each item below.
1. O=[N+]([O-])c1cn2c(n1)OC[C@@H](OCc1ccc(OC(F)(F)F)cc1)C2
2. CCCCCCNC(=O)n1cc(F)c(=O)[nH]c1=O
3. Cc1cnc(Nc2ccc(CN3CCOCC3)cc2)nc1Nc1cccc(S(=O)(=O)NC(C)(C)C)c1
4. C[C@H](NC(=O)C(C#N)=Cc1cccc(Br)n1)c1ccccc1
5. O=C(C=Cc1ccc(O)cc1)c1ccc(O)cc1O
6. C=CCc1cccc(C=NNC(=O)CN2CCN(Cc3ccccc3)CC2)c1O

## Result
inactive
16.6 µM (active)
0.469 µM (active)
0.935 µM (active)
18.7 µM (active)
16.6 µM (active)

----------
Give measured Potency for each item. Keep answers brief.
assay: Cellular viability qHTS for adrenocortical cancer (ACC) cell line SW-13 (AID 1963989); details: SW-13 ACC cells viability, CellTiter-Glo, 48 h; also: potency is read from the fitted curve at half-maximal effect; nearly all actives have a fitted effect of over 65% in size
Results filed as inconclusive are left out. The source made the active and inactive calls. Calls follow the shape of the dose curve; as a rule, active = well fitted cell-killing curve with a large enough effect; inconclusive = small, poorly fitted or top-dose-only effect; inactive = flat fitted curve, though single readings scatter. Square brackets hold non-standard residues; d marks the D form. Peptide text beside a SMILES is read from it. * marks the point of attachment. Nva = CCC[C@H](N)C(=O)O; Cbz = O=C(OCc1ccccc1)*

Examples with answers:
O=C(NCCCNC(=O)c1ccc[nH]c1=O)c1cc(-c2ccccc2)on1 ... 22.4 µM (active)
C[C@@]12C(=O)OC(=O)[C@]1(C)C1CCC2O1 ... 7.31 µM (active)
CNS(=O)(=O)c1ccc2c(c1)/C(=C/c1[nH]c3c(c1CCCN1CCN(C)CC1)CCCC3)C(=O)N2 ... 28.2 µM (active)
COc1ccc(CCN2CCC(Nc3nc4ccccc4n3Cc3ccc(F)cc3)CC2)cc1 ... 20.6 µM (active)
Cc1ncc(-c2ccnc(Nc3ccc(S(C)(=O)=O)cc3)n2)n1C(C)C ... 8.91 µM (active)
Cc1[nH]c(/C=C2\C(=O)Nc3ccc(S(=O)(=O)N(C)c4cccc(Cl)c4)cc32)c(C)c1C(=O)N1CCN(C)CC1 ... 17.8 µM (active)

Parameter requested: Potency. Apply to each item below.
1. O=C(Nc1ncc(-c2cc(C(F)F)nn2-c2c(Cl)cccc2Cl)s1)C1CC1
2. NC[C@@](O)(c1ccc(Cl)cc1)c1ccc(-c2cn[nH]c2)cc1

## Result
1: 0.316 µM (active); 2: 12.6 µM (active)

Parameter requested: Potency. Apply to each item below.
1. COC(=O)Nc1ccc(-c2nc(N3CCOCC3)c3cnn(C4CCN(Cc5cccnc5)CC4)c3n2)cc1
2. COc1ccc2c(c1)[C@]1(C[C@H]1c1ccc3c(/C=C/c4ccc(CN5C[C@@H](C)O[C@@H](C)C5)cc4)n[nH]c3c1)C(=O)N2
3. CCC[C@@H](C=O)NC(=O)[C@H](CC(C)C)NC(=O)[C@H](CC(C)C)NC(=O)OCc1ccccc1 (Cbz-Leu-Leu-[Nva]-aldehyde)

## Result
1: 12.6 µM (active); 2: 14.1 µM (active); 3: 2 µM (active)

----------
test: Viability qHTS for spleen associated tyrosine kinase inhibitor (SYKi) naive MV4-11 cells (AID 1963823); conditions: MV4-11 AML viability, CellTiter-Glo luminescence, 72 h; series mostly up to 45 µM; also: nearly all actives have a fitted effect of over 40% in size
Inconclusive results are not listed. The source made the active and inactive calls. The call rests on the fitted dose curve; in most records, active means well fitted cell-killing curve with a large enough effect; inconclusive means small, poorly fitted or top-dose-only effect, or effect the other way; inactive means no such curve, though single readings can be large or run the other way.
Output constraint: value belongs to active, inactive

Solved entries:
O=C1N=C(O)S/C1=C\c1ccc2nccnc2c1 ... active
CCn1c(-c2nonc2N)nc2c(C#CC(C)(C)O)ncc(OCC3CCCNC3)c21 (configuration not stated) ... active
C/C=C/C=C/C=C/C(=O)O[C@@H]1[C@@H](OC)C2=C(C(=O)N(C(CCC(=O)O)C(=O)O)C2)[C@@]2(C)CCCC(C)(C)[C@H]12 (some centres not stated) ... inactive
NCC(=O)O ... inactive
C[C@@]1(c2cc(-c3cncnc3)c(F)cc2F)CCSC(N)=N1 ... inactive

## Task Outcome? C[C@]12CC[C@@H]3c4ccc(O)cc4CC[C@H]3[C@@H]1CC[C@@H]2OC(=O)CCC1CCCC1
## Result inactive

## Task Outcome? CCOCCn1nc(CC)c2nc(N3CCC(C(=O)O)CC3)nc(Nc3cc(C)ccn3)c21
## Result inactive

## Task Outcome? OC[C@@]1(O)CO[C@H](OC[C@H]2O[C@@H](OCCc3ccccc3)[C@H](O)[C@@H](O)[C@@H]2O)[C@@H]1O
## Result inactive

## Task Outcome? CC(=O)OCCN1C(=O)c2c(C)nc3ccc(S(=O)(=O)N4CCOCC4)cc3c2C1=O
## Result inactive

## Task Outcome? CC(C)(O)CC[C@@H](O)[C@](C)(O)[C@H]1CC[C@@]2(O)C3=CC(=O)[C@@H]4C[C@@H](O)[C@@H](O)C[C@]4(C)[C@H]3CC[C@]12C
## Result inactive

## Task Outcome? CN(CC(=O)N(Cc1ccc(C2CCCCC2)cc1)c1ccc(C(=O)O)c(O)c1)S(=O)(=O)c1c(F)c(F)c(F)c(F)c1F
## Result active

## Task Outcome? C[C@@H]1[C@H]2[C@H](O[C@@H]3O[C@H](CO)[C@@H](O)[C@H](O)[C@H]3O)OC=C(C(=O)O)[C@H]2C[C@@H]1O
## Result inactive

----------
assay: Viability qHTS for spleen associated tyrosine kinase inhibitor (SYKi) naive MV4-11 cells (AID 1963823); conditions: MV4-11 AML viability, CellTiter-Glo luminescence, 72 h; series mostly up to 45 µM; also: nearly all actives have a fitted effect of over 40% in size
Inconclusive results are not listed. Active and inactive are the calls of the source. The call rests on the fitted dose curve; in most records, active means well fitted cell-killing curve with a large enough effect; inconclusive means small, poorly fitted or top-dose-only effect, or effect the other way; inactive means no such curve, though single readings can be large or run the other way.
Output constraint: value belongs to active, inactive

Solved entries:
Nc1ncnc2c1ncn2CCNCCCCCO ... inactive
CN1C(CSCC(F)(F)F)Nc2cc(Cl)c(S(N)(=O)=O)cc2S1(=O)=O (configuration not stated) ... inactive
CC1=C2CC(=O)C(C)CC/C=C(\C)CC2(O)OC1=O (configuration not stated) ... inactive
O=C1CCCc2c(O)cccc21 ... inactive
Cn1cnc(-c2cc3nccc(Oc4ccc(NC(=S)NC(=O)Cc5ccccc5)cc4F)c3s2)c1 ... active
CC[C@]1(O)CC2CN(CCc3c([nH]c4ccccc34)[C@@](C(=O)OC)(c3cc4c(cc3OC)N(C=O)[C@H]3[C@@](O)(C(=O)OC)[C@H](OC(C)=O)[C@]5(CC)C=CCN6CC[C@]43[C@@H]65)C2)C1 (some centres not stated) ... active
Cn1cc[nH]c1=S ... inactive
CC(C)C(O)(CO)CCO[C@@H]1O[C@H](CO[C@H]2OC[C@](O)(CO)[C@H]2O)[C@@H](O)[C@H](O)[C@H]1O (some centres not stated) ... inactive
COCC(=O)O[C@]1(CCN(C)CCCc2nc3ccccc3[nH]2)CCc2cc(F)ccc2[C@@H]1C(C)C ... active
CC(C)[C@@H](C)/C=C/[C@@H](C)[C@H]1CC[C@H]2C3=CC=C4C[C@@H](O)CC[C@]4(C)C3=CC[C@]12C ... active

## Task Outcome? CCC1=CC2CN(C1)Cc1c([nH]c3ccccc13)[C@@](C(=O)OC)(c1cc3c(cc1OC)N(C)[C@H]1[C@@](O)(C(=O)OC)[C@H](OC(C)=O)[C@]4(CC)C=CCN5CC[C@]31[C@@H]54)C2 (some centres not stated)
## Result active

## Task Outcome? CN1CCC(c2c(O)cc(O)c3c(=O)cc(-c4ccccc4Cl)oc23)C1CO (configuration not stated)
## Result active

## Task Outcome? CC1CNc2c(cccc2S(=O)(=O)N[C@@H](CCCN=C(N)N)C(=O)N2CC[C@@H](C)C[C@@H]2C(=O)O)C1 (some centres not stated)
## Result inactive
